B1: NELF-E aptamer (parent)
chain: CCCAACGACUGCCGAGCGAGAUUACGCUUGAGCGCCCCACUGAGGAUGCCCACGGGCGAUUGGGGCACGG

Variants of: B1
assay.protocol: HiTS-RAP
condition.description: with NELF-E (Drosophila)
Kindly supply the reported pKd values for the records listed here.
Worth noting: pKd values are minus log10 of concentrations stated in mol/L.

Asked: Given the variant A39U C40G , what is its reported pKd?
Given back: 8.23

Asked: Given the variant A8G C17U , what is its reported pKd?
Given back: 8.31

Asked: Given the variant C13G U29C , what is its reported pKd?
Given back: 8.31

Asked: Given the variant U23G C49U , what is its reported pKd?
Given back: 7.81

Asked: Given the variant A4U U10A , what is its reported pKd?
Given back: 8.36

Asked: Given the variant A4C C9G , what is its reported pKd?
Given back: 8.13

Asked: Given the variant U41G G48A , what is its reported pKd?
Given back: 8.12

Asked: Given the variant C13U U41G , what is its reported pKd?
Given back: 8.26

Asked: Given the variant A5C A8G , what is its reported pKd?
Given back: 8.17

Asked: Given the variant A8U G63A , what is its reported pKd?
Given back: 7.82

Asked: Given the variant A8U C17G , what is its reported pKd?
Given back: 8.22

Asked: Given the variant G14U U41G , what is its reported pKd?
Given back: 8.20

Asked: Given the variant C25U , what is its reported pKd?
Given back: 8.28

Asked: Given the variant C12U U29G , what is its reported pKd?
Given back: 8.26

Asked: Given the variant A5G C12A , what is its reported pKd?
Given back: 8.30

Asked: Given the variant G14A U29A , what is its reported pKd?
Given back: 8.31

Asked: Given the variant U22G C36U , what is its reported pKd?
Given back: 8.16

Asked: Given the variant C9G A43G , what is its reported pKd?
Given back: 7.52

Asked: Given the variant U23G G54U , what is its reported pKd?
Given back: 7.95

Asked: Given the variant C12G G55U , what is its reported pKd?
Given back: 8.05

Asked: Given the variant C13A A24G , what is its reported pKd?
Given back: 8.04

Asked: Given the variant C1A , what is its reported pKd?
Given back: 8.31

Asked: Given the variant A4G C33A , what is its reported pKd?
Given back: 8.27

Asked: Given the variant G7U U29G , what is its reported pKd?
Given back: 8.20

Asked: Given the variant A24G C36G , what is its reported pKd?
Given back: 8.07

Asked: Given the variant U10A C12G , what is its reported pKd?
Given back: 8.19

Asked: Given the variant G7U G62U , what is its reported pKd?
Given back: 8.11

Asked: Given the variant A8U U47G , what is its reported pKd?
Given back: 8.25

Asked: Given the variant A4U A19U , what is its reported pKd?
Given back: 8.25

Asked: Given the variant C2U , what is its reported pKd?
Given back: 8.28

Asked: Given the variant A5U A67G , what is its reported pKd?
Given back: 8.18

Asked: Given the variant A19U A52U , what is its reported pKd?
Given back: 7.66

Asked: Given the variant U10C C53U , what is its reported pKd?
Given back: 8.42

Asked: Given the variant A4U G65U , what is its reported pKd?
Given back: 8.21

Asked: Given the variant A24U , what is its reported pKd?
Given back: 8.23

Asked: Given the variant A8U U22G , what is its reported pKd?
Given back: 8.21

Asked: Given the variant U23G C53A , what is its reported pKd?
Given back: 8.17

Asked: Given the variant A4G C17U , what is its reported pKd?
Given back: 8.29

Asked: Given the variant A4U A15U , what is its reported pKd?
Given back: 8.21

Asked: Given the variant U23G U61C , what is its reported pKd?
Given back: 7.17

Asked: Given the variant U28C U61A , what is its reported pKd?
Given back: 7.36

Asked: Given the variant A24G C37G , what is its reported pKd?
Given back: 8.10

Asked: Given the variant A5U G65A , what is its reported pKd?
Given back: 8.17

Asked: Given the variant A4G G7U , what is its reported pKd?
Given back: 8.22

Asked: Given the variant C6U A21G , what is its reported pKd?
Given back: 8.15

Asked: Given the variant G11U A39G , what is its reported pKd?
Given back: 7.94

Asked: Given the variant C17G U28G , what is its reported pKd?
Given back: 8.19

Asked: Given the variant A4U A19G , what is its reported pKd?
Given back: 8.16

Asked: Given the variant A4G G7A , what is its reported pKd?
Given back: 8.16

Asked: Given the variant C9U C17G , what is its reported pKd?
Given back: 8.21

Asked: Given the variant A4G C25U , what is its reported pKd?
Given back: 8.21

Asked: Given the variant G11U A31U , what is its reported pKd?
Given back: 8.21

Asked: Given the variant A19G U23G , what is its reported pKd?
Given back: 8.21

Asked: Given the variant C13U A24G , what is its reported pKd?
Given back: 8.29

Asked: Given the variant A4U U10G , what is its reported pKd?
Given back: 8.26

Asked: Given the variant A8U C17U , what is its reported pKd?
Given back: 8.29

Asked: Given the variant U22C U23G , what is its reported pKd?
Given back: 8.30

Asked: Given the variant G18A U22G , what is its reported pKd?
Given back: 8.22

Asked: Given the variant U10G C51G , what is its reported pKd?
Given back: 8.35

Asked: Given the variant U23G C36U , what is its reported pKd?
Given back: 8.09

Asked: Given the variant C12G C17U , what is its reported pKd?
Given back: 8.15

Asked: Given the variant C68A , what is its reported pKd?
Given back: 8.28

Asked: Given the variant U23G A59G , what is its reported pKd?
Given back: 7.24

Asked: Given the variant A15G U29G , what is its reported pKd?
Given back: 8.22

Asked: Given the variant A31G A43G , what is its reported pKd?
Given back: 7.95

Asked: Given the variant C17G G34A , what is its reported pKd?
Given back: 8.07

Asked: Given the variant C38U U41G , what is its reported pKd?
Given back: 8.11

Asked: Given the variant A19U U29G , what is its reported pKd?
Given back: 8.24

Asked: Given the variant C6G C12A , what is its reported pKd?
Given back: 8.17

Asked: Given the variant G16U A67G , what is its reported pKd?
Given back: 8.25

Asked: Given the variant U10C U61A , what is its reported pKd?
Given back: 7.48

Asked: Given the variant A4C U10G , what is its reported pKd?
Given back: 8.19

Asked: Given the variant G7U G64A , what is its reported pKd?
Given back: 8.08

Asked: Given the variant U10G , what is its reported pKd?
Given back: 8.35

Asked: Given the variant U41G C66U , what is its reported pKd?
Given back: 8.38

Asked: Given the variant C12G U29G , what is its reported pKd?
Given back: 8.25

Asked: Given the variant G14U A39G , what is its reported pKd?
Given back: 8.01

Asked: Given the variant A24G G65A , what is its reported pKd?
Given back: 8.28

Asked: Given the variant G69U , what is its reported pKd?
Given back: 8.27

Asked: Given the variant A4U G20U , what is its reported pKd?
Given back: 8.18

Asked: Given the variant A39G U41G , what is its reported pKd?
Given back: 8.17

Asked: Given the variant C13G A15G , what is its reported pKd?
Given back: 8.22

Asked: Given the variant A5G U41C , what is its reported pKd?
Given back: 7.07

Asked: Given the variant G7U A31U , what is its reported pKd?
Given back: 8.27

Asked: Given the variant U23G G42U , what is its reported pKd?
Given back: 7.88

Asked: Given the variant A8U G14A , what is its reported pKd?
Given back: 8.13

Asked: Given the variant C13A U29G , what is its reported pKd?
Given back: 8.25

Asked: Given the variant C12G A43G , what is its reported pKd?
Given back: 7.58

Asked: Given the variant C17G , what is its reported pKd?
Given back: 8.30

Asked: Given the variant A15G A19G , what is its reported pKd?
Given back: 8.16

Asked: Given the variant G7A , what is its reported pKd?
Given back: 8.25

This collection of values is drawn from the RNAGym collection of RNA variant scans (doi:10.1038/nmeth.2970).
